Where these numbers come from: patent US12486300B2

Please respond with reported PC:TC32 (cellular selectivity) for every item in the list.
# System: TC32 Ewing sarcoma cells, expressing EWS-FLI1
# Procedure details: Growth inhibition assay, TC32 cells
# Type: cell-based
# Run conditions: ratio of GI50 PC3 to TC32
Answer as a number with no unit attached.

Recorded PC:TC32 (cellular selectivity) for COC(C(=NOC[Si](C)(C)C)C(O)C(C)O)C1Cc2cc3cc(OC4CC(OC5CC(O)C(O)C(C)O5)C(O)C(C)O4)c(C)c(O)c3c(O)c2C(=O)C1OC1CC(OC2CC(OC3CC(C)(O)C(O)C(C)O3)C(O)C(C)O2)C(O)C(C)O1 (stereo not drawn) [MTM (5E)] with TC32 Ewing sarcoma cells, expressing EWS-FLI1, please? 1.28

Recorded PC:TC32 (cellular selectivity) for C#CCON=C(C(O)C(C)O)C(OC)C1Cc2cc3cc(OC4CC(OC5CC(O)C(O)C(C)O5)C(O)C(C)O4)c(C)c(O)c3c(O)c2C(=O)C1OC1CC(OC2CC(OC3CC(C)(O)C(O)C(C)O3)C(O)C(C)O2)C(O)C(C)O1 (stereo not drawn) [MTM (17E)] with TC32 Ewing sarcoma cells, expressing EWS-FLI1, please? 2.40

Recorded PC:TC32 (cellular selectivity) for COC(C(=NOCc1ccccc1)C(O)C(C)O)C1Cc2cc3cc(OC4CC(OC5CC(O)C(O)C(C)O5)C(O)C(C)O4)c(C)c(O)c3c(O)c2C(=O)C1OC1CC(OC2CC(OC3CC(C)(O)C(O)C(C)O3)C(O)C(C)O2)C(O)C(C)O1 (stereo not drawn) with TC32 Ewing sarcoma cells, expressing EWS-FLI1, please? 1.08

Recorded PC:TC32 (cellular selectivity) for CNC(=O)C(Cc1c[nH]c2ccccc12)NC(=O)C(Cc1c[nH]c2ccccc12)NC(=O)CON=C(C(O)C(C)O)C(OC)C1Cc2cc3cc(OC4CC(OC5CC(O)C(O)C(C)O5)C(O)C(C)O4)c(C)c(O)c3c(O)c2C(=O)C1OC1CC(OC2CC(OC3CC(C)(O)C(O)C(C)O3)C(O)C(C)O2)C(O)C(C)O1 (stereo not drawn) with TC32 Ewing sarcoma cells, expressing EWS-FLI1, please? 5.0

Recorded PC:TC32 (cellular selectivity) for COC(C(=NOCC(=O)Nc1cncnc1)C(O)C(C)O)C1Cc2cc3cc(OC4CC(OC5CC(O)C(O)C(C)O5)C(O)C(C)O4)c(C)c(O)c3c(O)c2C(=O)C1OC1CC(OC2CC(OC3CC(C)(O)C(O)C(C)O3)C(O)C(C)O2)C(O)C(C)O1 (stereo not drawn) with TC32 Ewing sarcoma cells, expressing EWS-FLI1, please? 2.7

Recorded PC:TC32 (cellular selectivity) for COC(C(=NO)C(O)C(C)O)C1Cc2cc3cc(OC4CC(OC5CC(O)C(O)C(C)O5)C(O)C(C)O4)c(C)c(O)c3c(O)c2C(=O)C1OC1CC(OC2CC(OC3CC(C)(O)C(O)C(C)O3)C(O)C(C)O2)C(O)C(C)O1 (stereo not drawn) with TC32 Ewing sarcoma cells, expressing EWS-FLI1, please? 1.86

Recorded PC:TC32 (cellular selectivity) for COC(C(=NOCC(=O)Nc1ccncc1)C(O)C(C)O)C1Cc2cc3cc(OC4CC(OC5CC(O)C(O)C(C)O5)C(O)C(C)O4)c(C)c(O)c3c(O)c2C(=O)C1OC1CC(OC2CC(OC3CC(C)(O)C(O)C(C)O3)C(O)C(C)O2)C(O)C(C)O1 (stereo not drawn) with TC32 Ewing sarcoma cells, expressing EWS-FLI1, please? 2.4

Recorded PC:TC32 (cellular selectivity) for COC(C(=NOCC(=O)NCCc1c[nH]c2ccccc12)C(O)C(C)O)C1Cc2cc3cc(OC4CC(OC5CC(O)C(O)C(C)O5)C(O)C(C)O4)c(C)c(O)c3c(O)c2C(=O)C1OC1CC(OC2CC(OC3CC(C)(O)C(O)C(C)O3)C(O)C(C)O2)C(O)C(C)O1 (stereo not drawn) with TC32 Ewing sarcoma cells, expressing EWS-FLI1, please? 6.44

Recorded PC:TC32 (cellular selectivity) for COC(=O)C(Cc1c[nH]c2ccccc12)NC(=O)C(C)NC(=O)CON=C(C(O)C(C)O)C(OC)C1Cc2cc3cc(OC4CC(OC5CC(O)C(O)C(C)O5)C(O)C(C)O4)c(C)c(O)c3c(O)c2C(=O)C1OC1CC(OC2CC(OC3CC(C)(O)C(O)C(C)O3)C(O)C(C)O2)C(O)C(C)O1 (stereo not drawn) with TC32 Ewing sarcoma cells, expressing EWS-FLI1, please? 4.28

Recorded PC:TC32 (cellular selectivity) for COC(C(=NOCC(=O)NC(Cc1c[nH]c2ccccc12)C(=O)Nc1ccccc1)C(O)C(C)O)C1Cc2cc3cc(OC4CC(OC5CC(O)C(O)C(C)O5)C(O)C(C)O4)c(C)c(O)c3c(O)c2C(=O)C1OC1CC(OC2CC(OC3CC(C)(O)C(O)C(C)O3)C(O)C(C)O2)C(O)C(C)O1 (stereo not drawn) with TC32 Ewing sarcoma cells, expressing EWS-FLI1, please? 2.7

Recorded PC:TC32 (cellular selectivity) for COC(C(=NOCC(=O)Nc1ccc2c(c1)CC(=O)N2)C(O)C(C)O)C1Cc2cc3cc(OC4CC(OC5CC(O)C(O)C(C)O5)C(O)C(C)O4)c(C)c(O)c3c(O)c2C(=O)C1OC1CC(OC2CC(OC3CC(C)(O)C(O)C(C)O3)C(O)C(C)O2)C(O)C(C)O1 (stereo not drawn) with TC32 Ewing sarcoma cells, expressing EWS-FLI1, please? 3.8

Recorded PC:TC32 (cellular selectivity) for COC(C(=NOC(C)(C)C)C(O)C(C)O)C1Cc2cc3cc(OC4CC(OC5CC(O)C(O)C(C)O5)C(O)C(C)O4)c(C)c(O)c3c(O)c2C(=O)C1OC1CC(OC2CC(OC3CC(C)(O)C(O)C(C)O3)C(O)C(C)O2)C(O)C(C)O1 (stereo not drawn) [MTM (15E)] with TC32 Ewing sarcoma cells, expressing EWS-FLI1, please? 1.87

Recorded PC:TC32 (cellular selectivity) for COC(C(=NOCCCc1c[nH]c2ccccc12)C(O)C(C)O)C1Cc2cc3cc(OC4CC(OC5CC(O)C(O)C(C)O5)C(O)C(C)O4)c(C)c(O)c3c(O)c2C(=O)C1OC1CC(OC2CC(OC3CC(C)(O)C(O)C(C)O3)C(O)C(C)O2)C(O)C(C)O1 (stereo not drawn) with TC32 Ewing sarcoma cells, expressing EWS-FLI1, please? 1.38

Recorded PC:TC32 (cellular selectivity) for COC(C(=NOCC(=O)Nc1ccccc1)C(O)C(C)O)C1Cc2cc3cc(OC4CC(OC5CC(O)C(O)C(C)O5)C(O)C(C)O4)c(C)c(O)c3c(O)c2C(=O)C1OC1CC(OC2CC(OC3CC(C)(O)C(O)C(C)O3)C(O)C(C)O2)C(O)C(C)O1 (stereo not drawn) with TC32 Ewing sarcoma cells, expressing EWS-FLI1, please? 1.11

Recorded PC:TC32 (cellular selectivity) for CO[C@H](/C(=N/OCC(=O)N[C@@H](Cc1c[nH]c2ccccc12)C(=O)N(C)C)[C@@H](O)[C@@H](C)O)[C@@H]1Cc2cc3cc(O[C@H]4C[C@@H](O[C@H]5C[C@@H](O)[C@H](O)C(C)O5)[C@H](O)C(C)O4)c(C)c(O)c3c(O)c2C(=O)[C@H]1O[C@H]1C[C@@H](O[C@H]2C[C@@H](O[C@H]3C[C@](C)(O)[C@H](O)C(C)O3)[C@H](O)C(C)O2)[C@H](O)C(C)O1 (stereo partly drawn) with TC32 Ewing sarcoma cells, expressing EWS-FLI1, please? 35
